test: Trypan blue cell viability at the working concentrations, all three cell lines; format: cell-based; conditions: human (HEK-t, CFBE41O^−) and rat (FRT); at 2 μM, in all three cell lines
Readout Name: viability at 24 h, 2 µM

Asked: // returns reported viability at 24 h, 2 µM for input O=C(c1ccccc1)c1sc(NC(=O)C2(c3ccc4c(c3)OCO4)CC2)nc1-c1ccccc1
Given back: ≥ 90%
